Reference source: paper PMC3040456

- experimental.system: human recombinant glucocerebrosidase (GC) (Homo sapiens, UniProt P04062, R534H)
- Sequence (P04062 40-536 R534H): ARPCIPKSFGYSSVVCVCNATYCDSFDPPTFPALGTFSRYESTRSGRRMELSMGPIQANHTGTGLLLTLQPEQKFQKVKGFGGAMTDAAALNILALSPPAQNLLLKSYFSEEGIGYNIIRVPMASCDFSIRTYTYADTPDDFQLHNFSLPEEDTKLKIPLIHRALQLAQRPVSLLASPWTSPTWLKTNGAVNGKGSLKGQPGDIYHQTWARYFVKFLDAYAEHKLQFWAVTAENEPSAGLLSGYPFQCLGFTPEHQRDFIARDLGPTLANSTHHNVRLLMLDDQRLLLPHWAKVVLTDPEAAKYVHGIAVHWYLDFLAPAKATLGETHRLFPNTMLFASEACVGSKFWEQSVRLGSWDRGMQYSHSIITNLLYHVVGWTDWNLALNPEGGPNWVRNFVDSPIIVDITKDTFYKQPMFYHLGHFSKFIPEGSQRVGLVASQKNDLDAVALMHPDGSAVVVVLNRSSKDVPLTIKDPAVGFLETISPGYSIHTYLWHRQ
- run.description: glucocerebrosidase
- Format: biochemical
- condition.context: read-out: IC50 for GC; enzyme 1.9 nM, substrate 800 μM
Assign pIC50 to each entry below.
Please express pIC50 as -log10 of the molar concentration.

Measured pIC50, O=C([O-])c1ccccc1-c1c2cc(Br)c(=O)cc-2oc2[c]([Hg+])c([O-])c(Br)cc12.[Na+].[Na+].[OH-] [merbromin] : 6.20

Measured pIC50, CC(=O)[O][Hg][c]1ccccc1 [phenylmercuric acetate] : 7.09

---

- experimental.system: α-Galactosidase A from green coffee beans (Coffea arabica, UniProt Q42656)
- Sequence (Q42656 16-378): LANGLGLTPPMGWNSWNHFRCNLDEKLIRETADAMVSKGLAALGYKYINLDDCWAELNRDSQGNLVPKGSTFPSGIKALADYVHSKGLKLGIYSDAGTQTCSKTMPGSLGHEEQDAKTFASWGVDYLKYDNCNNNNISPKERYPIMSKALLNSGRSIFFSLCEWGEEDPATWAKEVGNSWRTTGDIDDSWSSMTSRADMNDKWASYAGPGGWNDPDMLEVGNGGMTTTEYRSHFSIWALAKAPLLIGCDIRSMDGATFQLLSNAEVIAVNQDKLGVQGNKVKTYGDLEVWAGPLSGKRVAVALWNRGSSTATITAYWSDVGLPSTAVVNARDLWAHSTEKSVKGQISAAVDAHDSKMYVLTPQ
- run.description: GLA enzyme kinetics assay
- Format: biochemical
attribute.measured: pKi
Please express pKi as -log10 of the molar concentration.

I looked up Cc1c(OCC(F)(F)F)ccnc1C[S+]([O-])c1nc2ccccc2[nH]1 (stereo not shown) and its pKi for α-Galactosidase A from green coffee beans (Coffea arabica, UniProt Q42656) was 5.26
